MEASUREMENT PROTOCOL: Study A16 Part 1: PK of single ascending oral doses of fospropofol disodium (200 to 2000 mg), fasted healthy adults
Type: in vivo, human
EXPERIMENTAL CONDITIONS: both sexes, human, plasma, oral, 800 mg, subjects 301-312 (800 mg cohort); Mean; read-out: Fospropofol AUC4

# SMILES STR, AUC, ng·h/mL
records = [
    ("CC(C)c1cccc(C(C)C)c1OCOP(=O)(O)O", 3440),
]

====

MEASUREMENT PROTOCOL: Study A17: PK of fospropofol and propofol after single oral dose of fospropofol disodium 800 mg in subjects with migraine
EXPERIMENTAL CONDITIONS: female, human, plasma, po, 800 mg, Fospropofol Cmax, Mean, Mean without Subject 6008 (below limit of quantitation at all time points); Fospropofol Disodium 800 mg oral

# SMILES STR, Cmax / ng/mL
rows = [
    ("CC(C)c1cccc(C(C)C)c1OCOP(=O)(O)O", 6320),
]

====

MEASUREMENT PROTOCOL: Study A16 Part 1: PK of single ascending oral doses of fospropofol disodium (200 to 2000 mg), fasted healthy adults
Type: in vivo, human
EXPERIMENTAL CONDITIONS: both sexes, human, plasma; oral fospropofol disodium 800 mg; mean; read-out: Fospropofol AUC0-∞

# SMILES STR, AUC(0-inf) (ng·h/mL)
rows = [
    ("CC(C)c1cccc(C(C)C)c1OCOP(=O)(O)O", 3360),
]

====

MEASUREMENT PROTOCOL: Study No. 15-4 toxicokinetics of fospropofol and propofol in plasma
Assay type: in vivo, Beagle dogs
EXPERIMENTAL CONDITIONS: male, beagle, dog, plasma, po, 50 mg/kg, oral gavage fospropofol disodium; Male; 50 mg/kg; Day 14; read-out: Fospropofol Tmax

# SMILES STR, Tmax
rows = [
    ("CC(C)c1cccc(C(C)C)c1OCOP(=O)(O)O", "30 to 60 min"),
]

====

MEASUREMENT PROTOCOL: Study No. 15-2 (non-GLP): MTD and 7-day once daily oral gavage toxicity of fospropofol disodium
Format: in vivo, Beagle dogs
EXPERIMENTAL CONDITIONS: dog, in vivo, Beagle dogs

# COMPOUND, UNIT, MTD at 7 days
data = [
    ("CC(C)c1cccc(C(C)C)c1OCOP(=O)([O-])O.[Na+] [fospropofol disodium]", "mg/kg/day", 160),
]

====

MEASUREMENT PROTOCOL: Study A16 Part 1: PK of single ascending oral doses of fospropofol disodium (200 to 2000 mg), fasted healthy adults
Format: in vivo, human
EXPERIMENTAL CONDITIONS: both sexes, human, plasma, po, 400 mg, Propofol Cmax Maximum, oral fospropofol disodium 400 mg

# SMILES STR, Cmax
rows = [
    ("CC(C)c1cccc(C(C)C)c1O", "499 ng/mL"),
]

====

MEASUREMENT PROTOCOL: Study A17: PK of fospropofol and propofol after single oral dose of fospropofol disodium 800 mg in subjects with migraine
EXPERIMENTAL CONDITIONS: female, human, plasma, po, 800 mg, Fospropofol Tmax, Mean, N = 12 migraine subjects; Fospropofol Disodium 800 mg oral

# SMILES STR, Tmax, min
data = [
    ("CC(C)c1cccc(C(C)C)c1OCOP(=O)(O)O", 19.8),
]

====

MEASUREMENT PROTOCOL: Study A16 Part 1: PK of single ascending oral doses of fospropofol disodium (200 to 2000 mg), fasted healthy adults
Format: in vivo, human
EXPERIMENTAL CONDITIONS: both sexes, human, plasma, po, 200 mg, Propofol Cmax Mean (SD), oral fospropofol disodium 200 mg

# MOLECULE, Cmax
records = [
    ("CC(C)c1cccc(C(C)C)c1O [propofol, 2,6-diisopropylphenol]", "69 ng/mL"),
]

====

MEASUREMENT PROTOCOL: Study A16 Part 1: PK of single ascending oral doses of fospropofol disodium (200 to 2000 mg), fasted healthy adults
Type: in vivo, human
EXPERIMENTAL CONDITIONS: both sexes, human, plasma, po, 800 mg, Propofol Cmax, oral fospropofol disodium 800 mg; mean

# SMILES STR, Cmax (ng/mL)
data = [
    ("CC(C)c1cccc(C(C)C)c1O", 362),
]

====

MEASUREMENT PROTOCOL: Study No. 15-4 toxicokinetics of fospropofol and propofol in plasma
Type: in vivo, Beagle dogs
EXPERIMENTAL CONDITIONS: male, Beagle, dog, plasma, po; males

# SMILES STR, half-life
records = [
    ("CC(C)c1cccc(C(C)C)c1O", "0.8 to 1.8 h"),
]

====

MEASUREMENT PROTOCOL: Study A16 Part 1: PK of single ascending oral doses of fospropofol disodium (200 to 2000 mg), fasted healthy adults
Format: in vivo, human
EXPERIMENTAL CONDITIONS: both sexes, human, plasma, po, 400 mg, Propofol Cmax Mean (SD), oral fospropofol disodium 400 mg
MEASUREMENT TYPE: Cmax (ng/mL)

# COMPOUND, VALUE
records = [
    ("CC(C)c1cccc(C(C)C)c1O [propofol, 2,6-diisopropylphenol]", 201),
]

====

MEASUREMENT PROTOCOL: Study A16 Part 1: PK of single ascending oral doses of fospropofol disodium (200 to 2000 mg), fasted healthy adults
Type: in vivo, human
EXPERIMENTAL CONDITIONS: both sexes, human, plasma, oral, 800 mg, subjects 301-312 (800 mg cohort); Mean; read-out: Fospropofol Tmax

# MOLECULE, Tmax / min
records = [
    ("CC(C)c1cccc(C(C)C)c1OCOP(=O)(O)O [fospropofol]", 20.4),
]

====

MEASUREMENT PROTOCOL: Study A16 Part 1: PK of single ascending oral doses of fospropofol disodium (200 to 2000 mg), fasted healthy adults
Assay type: in vivo, human
EXPERIMENTAL CONDITIONS: both sexes, human, plasma, po, 200 mg, Propofol Tmax, oral fospropofol disodium 200 mg; median

# SMILES STR, UNIT, Tmax
records = [
    ("CC(C)c1cccc(C(C)C)c1O", "min", 30),
]

====

MEASUREMENT PROTOCOL: Study A16 Part 1: PK of single ascending oral doses of fospropofol disodium (200 to 2000 mg), fasted healthy adults
Type: in vivo, human
EXPERIMENTAL CONDITIONS: both sexes, human, plasma, po, 400 mg, Propofol AUC0-∞, oral fospropofol disodium 400 mg; mean

# SMILES STR, AUC(0-inf), ng·h/mL
measured = [
    ("CC(C)c1cccc(C(C)C)c1O", 298),
]

====

MEASUREMENT PROTOCOL: Study A16 Part 1: PK of single ascending oral doses of fospropofol disodium (200 to 2000 mg), fasted healthy adults
Format: in vivo, human
EXPERIMENTAL CONDITIONS: both sexes, human, plasma, oral, 800 mg, Propofol AUC0-inf (arithmetic mean, n=10), single dose of 800 mg (four 200 mg capsules)
MEASUREMENT TYPE: AUC(0-inf) (ng·h/mL)

# SMILES STR, VALUE
records = [
    ("CC(C)c1cccc(C(C)C)c1O", 559),
]

====

MEASUREMENT PROTOCOL: Study No. 15-3 toxicokinetics of fospropofol and propofol in plasma
Format: in vivo, Sprague-Dawley rats
EXPERIMENTAL CONDITIONS: male, Sprague-Dawley, rat, plasma, po, 50 mg/kg, Propofol Tmax, oral gavage fospropofol disodium; Male; 50 mg/kg; Day 14
MEASUREMENT TYPE: Tmax

# SMILES STR, MEASUREMENT TYPE, VALUE
measured = [
    ("CC(C)c1cccc(C(C)C)c1O", "Tmax", "15 min"),
]

====

MEASUREMENT PROTOCOL: Study A16 Part 1: PK of single ascending oral doses of fospropofol disodium (200 to 2000 mg), fasted healthy adults
Type: in vivo, human
EXPERIMENTAL CONDITIONS: both sexes, human, plasma; oral fospropofol disodium 1000 mg; mean; read-out: Fospropofol t1/2 (converted)
MEASUREMENT TYPE: half-life (min)

# MOLECULE, VALUE
records = [
    ("CC(C)c1cccc(C(C)C)c1OCOP(=O)(O)O [fospropofol]", 17.4),
]

====

MEASUREMENT PROTOCOL: Study A16 Part 1: PK of single ascending oral doses of fospropofol disodium (200 to 2000 mg), fasted healthy adults
Assay type: in vivo, human
EXPERIMENTAL CONDITIONS: both sexes, human, plasma, po, 1000 mg, Propofol Cmax Mean (SD), oral fospropofol disodium 1000 mg; n = 9
MEASUREMENT TYPE: Cmax (ng/mL)

# MOLECULE, MEASUREMENT TYPE, UNIT, VALUE
data = [
    ("CC(C)c1cccc(C(C)C)c1O [propofol, 2,6-diisopropylphenol]", "Cmax", "ng/mL", 403),
]

Values from patent US12377110B2
